# Test system: SW-620
# test-name: NCI tumour cell line growth inhibition, 48 h
Calls of active or inactive are those of the source. Cut-off read from the data, not from the text of the source: active = GI50 up to about 1.1 µM and inactive = higher. Starred links: 1 amine or outer side, 2 acyl side, 3 side chain; linkers in the order of their positions; H or OH if unused. Non-standard residues stand in square brackets, D forms with d. Residues, ends and D or L forms follow the SMILES beside them. ξ: configuration not given here. X24 = O=C(C(CC(O)CO)O[*:1])[*:2]; Ile(3ξ) = CCC(C)[C@H](N)C(=O)O; NMeV = CN[C@H](C(=O)O)C(C)C; NMeA = CN[C@@H](C)C(=O)O; βAla = NCCC(=O)O
Exercise: for every item that follows, state its recorded GI50.

Ask: Value wanted: GI50 (SW-620) of entry CCOC(=O)c1cnc(-n2[nH]c(C)c(CCO)c2=O)[nH]c1=O
Reply: > 100 µM (inactive)

Ask: Try the compound O=C1N[C@@H]2c3c(csc3Br)C(=O)[C@@H]2O1
Reply: 20.2 µM (inactive)

Ask: Try the compound C=CCOC1CC(n2cnc3c(N)ncnc32)OC1CO (stereo unspecified)
Reply: > 100 µM (inactive)

Ask: Try the compound FC1(F)[Se]C2C3CCC(C3)C2C1(F)F (stereo unspecified)
Reply: > 100 µM (inactive)

Ask: Try the compound CCC(C)[C@@H]1NC(=O)[C@@H]2CCCN2C(=O)C(CC(O)CO)OC(=O)CCNC(=O)[C@H](C)N(C)C(=O)[C@H](C(C)C)N(C)C1=O (stereo partly specified) (cyclo([Ile(3ξ)][NMeV][NMeA][βAla][X24]P))
Reply: > 100 µM (inactive)

Ask: Try the compound CC(C)CCC/C(CBr)=C(\Cl)CCl
Reply: 1.5 µM (inactive)

* * *

# Test system: NCI-H460
# test-name: NCI tumour cell line growth inhibition, 48 h
Calls of active or inactive are those of the source. Cut-off read from the data, not from the text of the source: active = GI50 up to about 1.1 µM and inactive = higher.
Outcome (select one): active, inactive

Ask: Please state the recorded outcome for this compound: C=CCOC1CC(n2cnc3c(N)ncnc32)OC1CO (stereo unspecified)
Reply: inactive

Ask: Try the compound CCN(CC)CCOCCn1c2c(c3ccccc31)CCCC2
Reply: inactive

Ask: Try the compound C#C[C@]1(O)CC[C@H]2[C@@H]3CCC4=C/C(=N/NC(=O)c5cccc6cc7ccccc7nc56)CC[C@@H]4[C@H]3CC[C@@]21CC
Reply: inactive

Ask: Try the compound CN(C)c1ccc(/C=C/c2ccc3ccccc3[n+]2C)cc1
Reply: inactive

Ask: Try the compound COc1cc2c(cc1OCCCCCCCCN1C(=O)c3cccc4cccc(c34)C1=O)N=C[C@@H]1CCCN1C2=O
Reply: inactive

Ask: Try the compound OC1C2C=CCC1CCC2 (stereo unspecified)
Reply: inactive

Ask: Try the compound c1ccc2c3c(c(N4CCOCC4)nc2c1)CCCC3
Reply: inactive

Ask: Try the compound C/C(=N\N=C(/S)SCc1ccccc1)c1ccccn1
Reply: active

Ask: Try the compound CC(C)(C)/N=C1\C(=O)C2(C)CCC1C2(C)C (stereo unspecified)
Reply: inactive

Ask: Try the compound COC(=O)c1c2c(cc3c1CC1(Cc4cc5c(c(C)c4C1)CCC5)C3)CCC2 (stereo unspecified)
Reply: inactive

Ask: Try the compound N#C/N=C(/N)NCO
Reply: inactive

* * *

# Tested on: HT-29
# test-name: NCI tumour cell line growth inhibition, 48 h
Activity calls are given as the source filed them. Rule as the data show it: active = GI50 up to about 1.1 µM and inactive = higher. Starred links: 1 amine or outer side, 2 acyl side, 3 side chain; linkers in the order of their positions; H or OH if unused. Non-standard residues stand in square brackets, D forms with d. Residues, ends and D or L forms follow the SMILES beside them. ξ: configuration not given here. X24 = O=C(C(CC(O)CO)O[*:1])[*:2]; Ile(3ξ) = CCC(C)[C@H](N)C(=O)O; NMeV = CN[C@H](C(=O)O)C(C)C; NMeA = CN[C@@H](C)C(=O)O; βAla = NCCC(=O)O
Outcome (select one): active, inactive

Ask: Please state the recorded outcome for this compound: C[n+]1c(-c2ccc(/C=C/C=N\NC(=O)c3ccc(C(=O)N/N=C\C=C\c4ccc(-c5cn6ccccc6[n+]5C)cc4)cc3)cc2)cn2ccccc21
Reply: inactive

Ask: Try the compound O=C(Cc1ccc([N+](=O)[O-])c([N+](=O)[O-])c1CC(=O)C(=O)Nc1cc(Cl)ccc1Cl)C(=O)Nc1cc(Cl)ccc1Cl
Reply: inactive

Ask: Try the compound Cc1cn(C2CC(/[N+]([O-])=N\Nc3ccc([N+](=O)[O-])cc3)C(CO)O2)c(=O)[nH]c1=O (centres undefined)
Reply: inactive

Ask: Try the compound C#C[C@]1(O)CC[C@H]2[C@@H]3CCC4=C/C(=N\OCCN(CC)CC)CC[C@]4(C)[C@H]3CC[C@@]21C
Reply: inactive

Ask: Try the compound Cc1ccccc1C(=O)c1c(O)c2c(c(O)c1Br)CCCC2
Reply: inactive

Ask: Try the compound O=C(O)C(Cl)(c1ccccc1)c1ccccc1
Reply: inactive

Ask: Try the compound O=C1C(Cl)=C(N2C(=O)CCCC2=O)C(=O)c2ccccc21
Reply: inactive

Ask: Try the compound COc1ccc(-c2c(C#N)c(S)n(NS(=O)(=O)c3ccccc3)c(=O)c2C#N)cc1
Reply: inactive

Ask: Try the compound CN(CC(=O)Nc1ccccc1C(=O)O)c1ccccc1
Reply: inactive

Ask: Try the compound O=C1NCC2(CCNCC2)N1c1ccccc1
Reply: inactive

Ask: Try the compound CCC(C)[C@@H]1NC(=O)[C@@H]2CCCN2C(=O)C(CC(O)CO)OC(=O)CCNC(=O)[C@H](C)N(C)C(=O)[C@H](C(C)C)N(C)C1=O (some centres undefined) (cyclo([Ile(3ξ)][NMeV][NMeA][βAla][X24]P))
Reply: inactive

Ask: Try the compound COc1c(O)cc(O)c2c(=O)cc(-c3ccccc3)oc12
Reply: inactive

Ask: Try the compound COc1c2c(c3c(c1C1OC(C)[C@@H](C)O1)CC(C)(C)O3)C(=O)c1ccccc1C2=O (some centres undefined)
Reply: inactive

Ask: Try the compound O=C1CNNC(Cn2nc(-c3ccccc3)c3ccccc3c2=O)=N1
Reply: inactive

Ask: Try the compound Cc1nc2c(o1)/C(=N\c1ccccc1)c1ccccc1/C2=N/c1ccccc1
Reply: inactive

Ask: Try the compound C=CCOC1CC(n2cnc3c(N)ncnc32)OC1CO (centres undefined)
Reply: inactive

Ask: Try the compound COc1ccc2c(c1)[n+]([O-])c(C(=O)C/C(=N\NC(=O)C[N+](C)(C)C)C(=O)Nc1cc(Cl)ccc1Cl)c(C)[n+]2[O-]
Reply: inactive

Ask: Try the compound COC(=O)c1c2c(cc3c1CC1(Cc4cc5c(c(C)c4C1)CCC5)C3)CCC2 (centres undefined)
Reply: inactive

Ask: Try the compound CSc1nc2c(nc(N)n2C2OCC(O)C(O)C2O)c(=O)n1C (centres undefined)
Reply: inactive

Ask: Try the compound CCCC/C=C1\CCC(CN2CCOCC2)C1=O (centres undefined)
Reply: inactive

Ask: Try the compound C#C[C@]1(O)CC[C@H]2[C@@H]3CCC4=C/C(=N/NC(=O)c5cccc6cc7ccccc7nc56)CC[C@@H]4[C@H]3CC[C@@]21CC
Reply: inactive

Ask: Try the compound CC(C)COP(C)(=O)C(N)(C(F)(F)F)C(F)(F)F (centres undefined)
Reply: inactive

Ask: Try the compound COC(=O)C1=C(C)NC(C)=C(C(=O)OC)C1c1ccccc1NO
Reply: inactive

Ask: Try the compound Cc1cc(-c2cscn2)c(O)c([N+](=O)[O-])c1
Reply: inactive

Ask: Try the compound CC(C)=CCC[C@@H](C)C1=C(O)C(=O)C(C)=C(Nc2ccccc2Cl)C1=O
Reply: inactive

Ask: Try the compound COC(=O)CC(C(C(=O)OCc1ccccc1)C(C)O)N1C(=O)OC(c2ccccc2)C1c1ccccc1 (centres undefined)
Reply: inactive

Ask: Try the compound CCN(CC)CCCNc1nc(=O)[nH]c(C)c1C(=O)Nc1cccc2cc3ccccc3cc12
Reply: inactive

Ask: Try the compound N=C(N)NS(=O)(=O)c1ccc(Nc2c3ccccc3nc3c(C(=O)N4CCN(CCO)CC4)cccc23)cc1
Reply: inactive

Ask: Try the compound Cc1cccc(C(C)(C)C)c1NC(=O)CCc1nnc(S)[nH]1
Reply: inactive

Ask: Try the compound N#C/N=C(/N)NCO
Reply: inactive

Ask: Try the compound Nc1nc(S)nc2snnc12
Reply: inactive

Ask: Try the compound Cc1cc(Cl)ccc1NC(=O)C1C(=O)C(=O)N(c2ccc(Cl)cc2C)C1=O (centres undefined)
Reply: inactive

Ask: Try the compound O=C(C[n+]1ccccc1)N/N=C(\C(=O)NC1=C(Cl)C(=O)c2ccccc2C1=O)c1c(O)c2ccc(O)cc2oc1=O
Reply: inactive

Ask: Try the compound CN(CCc1ccccn1)C(=S)N/N=C(\c1ccccc1)c1ccccn1
Reply: active

Ask: Try the compound O=c1c2ccccc2nc(-c2ccccc2)n1/N=C/c1ccccc1[N+](=O)[O-]
Reply: inactive

Ask: Try the compound O=C(O)CC[N+]1=CCC(c2ccccc2)(c2ccccc2)O1
Reply: inactive

Ask: Try the compound COn1cc(CO)c2ccccc21
Reply: inactive

Ask: Try the compound COC(=O)CNC(=O)Nc1cc(N2C(=O)ON3C2C(C)(C)N(O)C3(C)C)ccc1C (centres undefined)
Reply: inactive

Ask: Try the compound O=C1CC(=O)NC(NN2C(=O)/C(=C/C(=O)c3ccco3)N=C2c2ccccc2)=N1
Reply: inactive

Data origin, for the record: ChEMBL document CHEMBL1201862
